- Measured Target: ALK5 (Homo sapiens (Human))
- Run Description: Cell-free assay for inhibition of ALK5 kinase phosphorylation
- Type: biochemical
- Recorded Conditions: read-out: IC50 on ALK5 kinase phosphorylation
Quantity Name: pIC50
Would you please state pIC50, meaning minus log10 of the concentration in mol/L, as a bare number?

Would you please look over these solved cases?
Cc1cccc(-c2[nH]c(Cc3ccccc3F)nc2-c2ccc3ncnn3c2)n1: 7.60
Cc1cccc(-c2[nH]c(CN(C)c3cccc(C(N)=O)c3)nc2-c2ccc3ncnn3c2)n1: 6.82
C=Cc1cccc(NCc2nc(-c3ccc4ncnn4c3)c(-c3cccc(C)n3)[nH]2)c1: 7.92
CSc1ccc(NCc2nc(-c3ccc4ncnn4c3)c(-c3cccc(C)n3)[nH]2)cc1: 7.40
CC(=O)Nc1cccc(NCc2nc(-c3ccc4ncnn4c3)c(-c3cccc(C)n3)[nH]2)c1: 7.81
Cc1cccc(-c2[nH]c(CNc3ccc(C)c(C)c3)nc2-c2ccc3ncnn3c2)n1: 7.76
CC(=O)c1cccc(NCc2nc(-c3ccc4ncnn4c3)c(-c3cccc(C)n3)[nH]2)c1: 7.89

With those in mind, consider the next compound.
(Q) Reported pIC50, compound `COc1ccccc1NCc1nc(-c2ccc3ncnn3c2)c(-c2cccc(C)n2)[nH]1` : ____
(A) 7.84

====

- Measured Target: ALK4 (Homo sapiens (Human), UniProt P36896)
- Sequence (P36896 24-505): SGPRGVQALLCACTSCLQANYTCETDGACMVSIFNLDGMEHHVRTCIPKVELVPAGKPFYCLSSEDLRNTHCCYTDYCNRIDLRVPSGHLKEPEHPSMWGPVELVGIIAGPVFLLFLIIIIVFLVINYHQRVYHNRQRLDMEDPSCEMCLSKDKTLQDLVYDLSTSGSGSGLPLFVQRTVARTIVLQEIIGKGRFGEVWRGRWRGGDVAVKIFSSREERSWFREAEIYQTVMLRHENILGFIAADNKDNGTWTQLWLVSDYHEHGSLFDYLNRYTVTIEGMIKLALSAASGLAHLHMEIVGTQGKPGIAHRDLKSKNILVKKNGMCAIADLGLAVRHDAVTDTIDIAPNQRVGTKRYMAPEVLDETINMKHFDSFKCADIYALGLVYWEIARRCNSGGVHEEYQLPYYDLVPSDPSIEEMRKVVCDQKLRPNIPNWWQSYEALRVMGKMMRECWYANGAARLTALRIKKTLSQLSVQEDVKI
Quantity Name: IC50
Reply with the number and its unit after it.

(Q) Entry `Cc1cccc(-c2[nH]c(CNc3ccccc3F)nc2-c2ccc3ncnn3c2)n1` , system ALK4 (Homo sapiens (Human), UniProt P36896): what IC50 was measured?
(A) 17.3 nM

====

- Measured Target: ALK5 (Homo sapiens (Human))
- Run Description: Cell-free assay for inhibition of ALK5 kinase phosphorylation
- Format: biochemical
- Recorded Conditions: read-out: IC50 on ALK5 kinase phosphorylation
Collected pIC50 values appear next to each entry.
Would you please state pIC50, meaning minus log10 of the concentration in mol/L, as a bare number?

Would you please look over these solved cases?
Cc1cccc(-c2[nH]c(CNc3ccc(Cl)cc3)nc2-c2ccc3ncnn3c2)n1 [Example 14]: 7.97
Cc1cccc(-c2[nH]c(COc3ccccc3)nc2-c2ccc3ncnn3c2)n1 [Example 148]: 7.88

With those in mind, consider the next compound.
(Q) Reported pIC50, compound Cc1cccc(-c2[nH]c(CNc3cccc(F)c3F)nc2-c2ccc3ncnn3c2)n1 [Example 7] : ____
(A) 8.05

====

- Measured Target: ALK5 (Homo sapiens (Human), UniProt P36897)
- Sequence (P36897 34-503): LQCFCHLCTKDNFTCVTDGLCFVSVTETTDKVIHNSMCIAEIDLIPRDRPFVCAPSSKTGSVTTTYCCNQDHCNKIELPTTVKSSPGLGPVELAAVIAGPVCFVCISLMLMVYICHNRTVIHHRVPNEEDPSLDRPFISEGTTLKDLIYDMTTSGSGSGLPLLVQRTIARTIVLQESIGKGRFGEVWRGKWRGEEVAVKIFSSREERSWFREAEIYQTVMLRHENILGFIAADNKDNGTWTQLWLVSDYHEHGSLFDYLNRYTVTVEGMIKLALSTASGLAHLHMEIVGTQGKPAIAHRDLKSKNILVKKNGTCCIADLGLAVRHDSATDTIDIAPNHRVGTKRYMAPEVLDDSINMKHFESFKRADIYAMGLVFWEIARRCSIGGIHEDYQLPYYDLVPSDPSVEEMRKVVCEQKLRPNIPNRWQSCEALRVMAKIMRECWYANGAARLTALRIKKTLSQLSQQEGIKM
- Run Description: Cell-free assay for inhibition of ALK5 kinase phosphorylation
- Type: biochemical
- Recorded Conditions: read-out: IC50 on ALK5 kinase phosphorylation
Collected IC50 values appear next to each entry.
The response must be a number in µM with no trailing unit.

C=Cc1ccc(NCc2nc(-c3ccc4ncnn4c3)c(-c3cccc(C)n3)[nH]2)cc1: 0.0296
CCc1cccc(-c2[nH]c(CNc3cccc(C#N)c3)nc2-c2ccc3ncnn3c2)n1: 0.0094
CSc1ccccc1NCc1nc(-c2ccc3ncnn3c2)c(-c2cccc(C)n2)[nH]1: 0.00993

(Q) Reported IC50, compound `Cc1cccc(-c2[nH]c(CNc3ccccc3C)nc2-c2ccc3ncnn3c2)n1` : ____
(A) 0.0139
